- PROCEDURE_SUMMARY: Lipophilicity, n-octanol/PBS distribution (logD7.2)
- Format: physicochemical
- RECORDED_CONDITIONS: n-octanol/PBS distribution at pH 7.2; mean of three measurements ± SD
QUANTITY: logD 7.2

IN: Request the reported logD 7.2 associated with CC1=CC(C)=[N+]2C1=Cc1ccc(CCC(=O)NCCc3cccc(C4=[N+]5N=C(N(C)C)[S][Au-]5([Cl])[n+]5ccccc54)n3)n1[B-]2(F)F.F[P-](F)(F)(F)(F)F (stereo not shown)
OUT: 1.53

1: CN(C)C1=N[N+]2=C(c3cccc(CCNC(=O)CCCNC(=O)c4cc5cc6c7c(c5oc4=O)CCCN7CCC6)n3)c3cccc[n+]3[Pt-2]2([Cl])[S]1 (stereo not shown)
2: CN(C)C1=N[N+]2=C(c3cccc(CCNC(=O)CCCNC(=O)c4cc5cc6c7c(c5oc4=O)CCCN7CCC6)n3)c3cccc[n+]3[Au-]2([Cl])[S]1.F[P-](F)(F)(F)(F)F (stereo not shown)
IN: // max by logD 7.2 over [ 1 , 2 ] # respond with the chosen item's label
OUT: 1

---

- System: HeLa cells
- PROCEDURE_SUMMARY: MTT antiproliferative / cell viability assay
- Format: cell-based
- RECORDED_CONDITIONS: 72 hours incubation, mean of three ± SD, read-out: IC50 72 hours
QUANTITY: IC50 (µM)

IN: What reported IC50 corresponds to CC1=CC(C)=[N+]2C1=Cc1ccc(CCC(=O)NCCc3cccc(C4=[N+]5N=C(N(C)C)[S][Pt-2]5([Cl])[n+]5ccccc54)n3)n1[B-]2(F)F (centres unmarked) [Compound 7b] on HeLa cells?
OUT: 4.3

IN: What reported IC50 corresponds to CC1=CC(C)=[N+]2C1=Cc1ccc(CCC(=O)NCCc3cccc(C4=[N+]5N=C(N(C)C)[S][Au-]5([Cl])[n+]5ccccc54)n3)n1[B-]2(F)F.F[P-](F)(F)(F)(F)F (centres unmarked) [Compound 7a] on HeLa cells?
OUT: 0.6

IN: What reported IC50 corresponds to CN(C)C1=N[N+]2=C(c3cccc(CCNC(=O)CCCNC(=O)c4cc5cc6c7c(c5oc4=O)CCCN7CCC6)n3)c3cccc[n+]3[Au-]2([Cl])[S]1.F[P-](F)(F)(F)(F)F (centres unmarked) [Compound 5a] on HeLa cells?
OUT: 3.1

a: CN(C)C1=N[N+]2=C(c3cccc(CCNC(=O)CCCNC(=O)c4cc5cc6c7c(c5oc4=O)CCCN7CCC6)n3)c3cccc[n+]3[Pt-2]2([Cl])[S]1 (centres unmarked) [Compound 5b]
b: CN(C)C1=N[N+]2=C(c3ccccn3)c3cccc[n+]3[Au-]2([Cl])[S]1.[Cl][Au-][Cl] (centres unmarked) [Compound 8a]
IN: Between the entries labeled a and b , whose measured IC50 is lower? # respond with the chosen item's label
OUT: b
(b: 0.009 µM, a: 58.2 µM)

---

- System: HeLa cells
- PROCEDURE_SUMMARY: MTT antiproliferative / cell viability assay
- Assay type: cell-based
- RECORDED_CONDITIONS: Homo sapiens, 24 hours incubation, mean of three ± SD, read-out: IC50 24 hours
QUANTITY: IC50

IN: Request the reported IC50 associated with CN(C)C(=S)NN=C(c1ccccn1)c1cccc(CCNC(=O)CCCNC(=O)c2cc3cc4c5c(c3oc2=O)CCCN5CCC4)n1
OUT: > 15 µM

More entries:
IN: Request the reported IC50 associated with CC1=CC(C)=[N+]2C1=Cc1ccc(CCC(=O)NCCc3cccc(C(=NNC(=S)N(C)C)c4ccccn4)n3)n1[B-]2(F)F
OUT: > 15 µM

IN: Request the reported IC50 associated with CN(C)C(=S)NN=C(c1ccccn1)c1ccccn1 [Dp44mT, reference compound]
OUT: > 15 µM

---

- PROCEDURE_SUMMARY: Stability in cell culture medium by UV/Vis spectroscopy
- Type: physicochemical
- RECORDED_CONDITIONS: 50 µM, DMEM with 10% fetal bovine serum, over 72 hours
QUANTITY: stability in cell culture medium

IN: Request the reported stability in cell culture medium associated with CN(C)C1=N[N+]2=C(c3ccccn3)c3cccc[n+]3[Au-]2([Cl])[S]1.[Cl][Au-][Cl] (stereo not shown)
OUT: decomposed

IN: Request the reported stability in cell culture medium associated with CC1=CC(C)=[N+]2C1=Cc1ccc(CCC(=O)NCCc3cccc(C4=[N+]5N=C(N(C)C)[S][Au-]5([Cl])[n+]5ccccc54)n3)n1[B-]2(F)F.F[P-](F)(F)(F)(F)F (stereo not shown)
OUT: decomposed

---

- Tested on: HeLa cells
- PROCEDURE_SUMMARY: Cellular uptake assay, metal content by ICP-MS
- Assay type: cell-based
- RECORDED_CONDITIONS: 10 µM, 24 h, whole cell accumulation by ICP-MS
- Experimental: Subsequently, we investigated the uptake of the conjugates 5 and 7 (at 10 µM) by incubating HeLa cells with the respective compounds for 24 hours and analyzing the final metal concentration inside the cells using inductively coupled plasma mass spectrometry (ICP‐MS). […] Cells were suspended in the mixture, and the total cell count was determined using a Bio -Rad TC20 cell counter. […]
QUANTITY: Metal content (pg/cell)

IN: What reported Metal content corresponds to CN(C)C1=N[N+]2=C(c3cccc(CCNC(=O)CCCNC(=O)c4cc5cc6c7c(c5oc4=O)CCCN7CCC6)n3)c3cccc[n+]3[Au-]2([Cl])[S]1.F[P-](F)(F)(F)(F)F (stereo not shown) [Compound 5a] on HeLa cells?
OUT: 0.032

IN: What reported Metal content corresponds to CN(C)C1=N[N+]2=C(c3cccc(CCNC(=O)CCCNC(=O)c4cc5cc6c7c(c5oc4=O)CCCN7CCC6)n3)c3cccc[n+]3[Pt-2]2([Cl])[S]1 (stereo not shown) [Compound 5b] on HeLa cells?
OUT: 0.016

P: CC1=CC(C)=[N+]2C1=Cc1ccc(CCC(=O)NCCc3cccc(C4=[N+]5N=C(N(C)C)[S][Pt-2]5([Cl])[n+]5ccccc54)n3)n1[B-]2(F)F (stereo not shown) [Compound 7b]
Q: CC1=CC(C)=[N+]2C1=Cc1ccc(CCC(=O)NCCc3cccc(C4=[N+]5N=C(N(C)C)[S][Au-]5([Cl])[n+]5ccccc54)n3)n1[B-]2(F)F.F[P-](F)(F)(F)(F)F (stereo not shown) [Compound 7a]
IN: // max by Metal content over [ P , Q ] # respond with the chosen item's label
OUT: Q
(Q: 0.035 pg/cell, P: 0.013 pg/cell)
